system: SF-539 CNS; assay: NCI-60 one-dose screen, 48 h (100 = growth as untreated, 0 = no growth, -100 = all killed); conditions: 10 µM unless noted
About 83,000 compounds went through this panel and 20% of them were active in at least one assay; those are over-represented in the sample as a whole.
Entries are grouped by growth into these classes: bin A: < 20%; bin B: ≥ 20% and < 90%; bin C: ≥ 90%

Each compound maps to one class by growth. Which class for Nc1cc(-c2ccccc2)ccc1O ? bin C

====

Tested on: HCT-15 colon
Test: NCI-60 one-dose screen, 48 h (100 = growth as untreated, 0 = no growth, -100 = all killed)
Conditions: 10 µM unless noted
Protocol: Growth inhibition of the HCT-15 human tumor cell line is measured as a screen for anti-cancer activity. Cells are grown in 96 well plates and exposed to the test compound for 48 hours. Compounds are tested at a single concentration, which is 10^-5 M for most compounds. The reported endpoint is percent growth (GI% or GIPRCNT), where numbers from 0 - 100% represent growth inhibition, and numbers from -100% - 0 represent cell death. For example, a value of 40 represents 60% growth inhibition. […]
The panel holds about 83,000 compounds, 20% with a hit somewhere; the sample as a whole holds those more often.
Listed below: growth values for each entry.
Give just the numeric value; % need not be written.

Reference set (4 entries):
• CCN1CCCC(Nc2cc(C)nc(/N=C(/N)Nc3ccc(Cl)c(Cl)c3)n2)C1 (stereo not given) = -37.2
• Cc1cc2cccnc2c2ncccc12 = 37
• NC(CS/C(Cl)=C/Cl)C(=O)O (stereo not given) = 85.5
• COc1ccc2nc3cc([N+](=O)[O-])ccc3c(NNc3ccccc3)c2c1 = 69.4

Consider the compound O=C1/C(=C/c2ccccn2)CCc2ccccc21 and give its measured growth. 95.3

How about [Cl-].[Rh+3].c1ccc(-c2ccnc3c2ccc2c(-c4ccccc4)ccnc23)cc1.c1ccc(-c2ccnc3c2ccc2c(-c4ccccc4)ccnc23)cc1.c1ccc(-c2ccnc3c2ccc2c(-c4ccccc4)ccnc23)cc1 ? 106

Next compound up: CCCCCCCCCCCCCCCCCC[S+](C)CC (stereo not given) 38.8

Now try O=Nc1ccc2ccccc2c1O . 66.5

How about CC(C)=CCCC(C)C1=C(O)C(=O)C(C)=CC1=O (stereo not given) ? 1.72

====

Test system: A498 renal
Test: NCI-60 one-dose screen, 48 h (100 = growth as untreated, 0 = no growth, -100 = all killed)
Details: 10 µM unless noted
Method: Growth inhibition of the A498 human tumor cell line is measured as a screen for anti-cancer activity. Cells are grown in 96 well plates and exposed to the test compound for 48 hours. Compounds are tested at a single concentration, which is 10^-5 M for most compounds. The reported endpoint is percent growth (GI% or GIPRCNT), where numbers from 0 - 100% represent growth inhibition, and numbers from -100% - 0 represent cell death. For example, a value of 40 represents 60% growth inhibition. […]
The panel holds about 83,000 compounds, 20% with a hit somewhere; the sample as a whole holds those more often.
Entries are grouped by growth into these classes: I: < 60%; II: ≥ 60% and < 90%; III: ≥ 90%

• CC1(C)CCCC2=C1C(=O)N(SC(Cl)(Cl)Cl)C2=O = III
• O=C(Nc1cccc(C(F)(F)F)c1)Oc1ccc(Cl)c2cccnc12 = II
• CCCCCCCCCCCCCCCCCC[S+](C)CC (stereo not given) = II
• Cc1ccc2cccc(OC(=O)Nc3cccc(C(F)(F)F)c3)c2n1 = II
• COc1cc2c(c(OC)c1OC)-c1ccc(NCc3ccccc3)c(=O)cc1[C@@H](NC(C)=O)CC2 = I
• S=C1SCN(Cc2cccs2)CN1Cc1cccs1 = III

For the next question, use this molecule.
Quick check: band for C(=N\Nc1ccc2ccccc2n1)/c1ccccn1 I

====

tested on: SF-539 CNS; assay: NCI-60 one-dose screen, 48 h; conditions: 10 µM unless noted
About 83,000 compounds went through this panel and 20% of them were active in at least one assay; those are over-represented in the sample as a whole. Activity calls are given as the source filed them. Rule for the calls: active = growth percent below 10; inactive = the rest.
Pick from 1 (yes) (active), 0 (no) (inactive) when you respond.

Some solved entries appear below for comparison.
- Oc1ccc(Nc2ccc3ccccc3c2)cc1: 0 (no)
- O=[N+]([O-])c1ccc(N2CCN(Cc3ccccc3)CC2)c2c1no[n+]2[O-]: 1 (yes)
- NC(=Nc1nc(-c2ccccn2)cc2ccccc12)c1ccccn1: 1 (yes)

# outcome recorded in this test, key = CCOC(=O)NC(/C=C/c1ccccc1)NC(=O)OCC 0 (no)

====

Tested on: OVCAR-4 ovarian
Test: NCI-60 one-dose screen, 48 h (100 = growth as untreated, 0 = no growth, -100 = all killed)
Conditions: 10 µM unless noted
Description: Growth inhibition of the OVCAR-4 human tumor cell line is measured as a screen for anti-cancer activity. Cells are grown in 96 well plates and exposed to the test compound for 48 hours. Compounds are tested at a single concentration, which is 10^-5 M for most compounds. The reported endpoint is percent growth (GI% or GIPRCNT), where numbers from 0 - 100% represent growth inhibition, and numbers from -100% - 0 represent cell death. For example, a value of 40 represents 60% growth inhibition. […]
Compounds without any hit were thinned out: in the full panel of roughly 83,000, 20% have a hit.
recorded endpoint: growth (%)
Report only the number, with the unit % understood.

• CC1(C)OCC(COC(c2ccccc2)(c2ccccc2)c2ccccc2)O1 (centres undefined) = 96

Which growth value is on record for O=[N+]([O-])c1cc(-c2ccccc2)c(O)c([N+](=O)[O-])c1 ? 62.6

And then COC(=O)[C@]1(C)CCC[C@]2(C)c3ccc(C(C)C)cc3C(=O)[C@@H](Br)[C@@H]12 , what is it? 82.3

Do the same for C/C=C/c1cc2c(c(=O)o1)C(=O)[C@@H](O)[C@H](C)O2 please -12.6

====

Catalogue of compounds with associated growth
test system: SK-MEL-28 melanoma; experiment: NCI-60 one-dose screen, 48 h (100 = growth as untreated, 0 = no growth, -100 = all killed); details: 10 µM unless noted
The panel holds about 83,000 compounds, 20% with a hit somewhere; the sample as a whole holds those more often. Calls of active or inactive are those of the source. The calls were made as follows: active = growth percent below 10; inactive = the rest.

Consider the compound O=[N+]([O-])c1ccc(C(Br)c2ccc([N+](=O)[O-])cc2)cc1 and give its measured growth. 105% (inactive)

Another compound: Oc1ccc(Cl)cc1C(c1cc(Cl)ccc1O)C(Cl)(Cl)Cl 38.8% (inactive)

Same question, S=C1SCN(Cc2cccs2)CN1Cc1cccs1 this time 109% (inactive)

====

tested on: NCI/ADR-RES ovarian; assay: NCI-60 one-dose screen, 48 h (100 = growth as untreated, 0 = no growth, -100 = all killed); conditions: 10 µM unless noted
Compounds without any hit were thinned out: in the full panel of roughly 83,000, 20% have a hit. Activity calls are given as the source filed them. The calls were made as follows: active = growth percent below 10; inactive = the rest.
recorded endpoint: growth

Some compounds with known growth results, for comparison:
* Oc1c(C(Nc2ccccc2)c2ccccc2)ccc2cccnc12 (configuration not stated) | 16.8% (inactive)
* O=C(C[P+](c1ccccc1)(c1ccccc1)c1ccccc1)c1ccccc1 | 82.8% (inactive)
* O=C(Cc1nc2cc(Cl)c(Cl)cc2nc1CC(=O)c1ccccc1)c1ccccc1 | 74.6% (inactive)
* OCCOSCCO | 113% (inactive)
* C1=C(c2ccccc2)c2ccccc2C1 | 101% (inactive)
* Cc1ccc(/C=C2\CNC/C(=C\c3ccc(C)cc3)C2=O)cc1 | -51.3% (active)

Find the recorded growth belonging to OC(Cc1cc(CC(O)(C(F)(F)F)C(F)(F)F)nc(CC(O)(C(F)(F)F)C(F)(F)F)c1)(C(F)(F)F)C(F)(F)F and report it. 3.76% (active)

Same question, O=C1C=CC(=O)N1c1ccc(O)cc1 this time 106% (inactive)

====

test system: MDA-MB-435 melanoma; experiment: NCI-60 one-dose screen, 48 h (100 = growth as untreated, 0 = no growth, -100 = all killed); conditions: 10 µM unless noted
This is part of a sample that, as a whole, favours compounds with a hit. Of some 83,000 tested, about 20% had one in any assay.
Reported growth by item:
Numbers only here, please. The scale is %.

Worked set:
* CCCc1cc(=O)oc2c3c(c4c(c12)OC(C)(C)CC4)OC(C)[C@H](C)[C@@H]3O (some centres not stated) | 112
* CCOC(=O)c1[nH]c(C#N)c(C(=O)OCC)c1C | 94.4
* CN(C)c1ccc(/C=C/c2sc3ccc4ccccc4c3[n+]2C)cc1 | -34.8
* O=C(CBr)c1ccc(OC(=O)c2ccccc2)cc1 | 106
* S=C(SSC(=S)N1CCOCC1)N1CCOCC1 | 53.6
* OC(c1cc(C23CC4CC(CC(C4)C2)C3)nc2c(Cl)cc(Cl)cc12)C1CCCCN1 (configuration not stated) | -66.1
* CC(=O)Nc1ccc(C(=O)CCl)cc1 | 14.4
* CCC1CCCCN1C(=S)N/N=C(\C)c1ccccn1 (configuration not stated) | 3.24

Look up growth for this compound: CCCCCC[C@@H](O)C/C=C\CCCCCCCC(=O)OCCOC 110

Moving on to O=[N+]([O-])C=C(c1ccccc1)c1ccccc1 23.7

The reported measurements were obtained from PubChem BioAssay (NCI).
